- Species: Homo sapiens
- Assay notes: Inhibition of cathepsin (unknown origin) at >10 uM
Active and inactive are the calls of the source. No cut-off for these calls is given here.
Result type: inhibition

[
  {
    "Compound structure string": "CCC(=C(c1ccc(OCCN2CCCCC2)cc1)c1ccc(OCCN2CCCCC2)cc1)c1ccccc1",
    "inhibition": "inactive"
  },
  {
    "Compound structure string": "CCC(=C(c1ccc(OCCCN2CCCC2)cc1)c1ccc(OCCCN2CCCC2)cc1)c1ccccc1",
    "inhibition": "inactive"
  },
  {
    "Compound structure string": "CCC(=C(c1ccc(OCCN2CCCC2)cc1)c1ccc(OCCN2CCCC2)cc1)c1ccccc1",
    "inhibition": "inactive"
  },
  {
    "Compound structure string": "CCC(=C(c1ccc(OCCCN(C)C)cc1)c1ccc(OCCCN(C)C)cc1)c1ccccc1",
    "inhibition": "inactive"
  }
]

Would you mind listing inhibition for each of the following compounds?
1. CCC(=C(c1ccc(OCCN2CCCCCC2)cc1)c1ccc(OCCN2CCCCCC2)cc1)c1ccccc1
2. CCC(=C(c1ccc(OCCN(CC)CC)cc1)c1ccc(OCCN(CC)CC)cc1)c1ccccc1
3. CCC(=C(c1ccc(OCCN2CCOCC2)cc1)c1ccc(OCCN2CCOCC2)cc1)c1ccccc1
4. CCC(=C(c1ccc(OCCN(C)C)cc1)c1ccc(OCCN(C)C)cc1)c1ccccc1

["inactive", "inactive", "inactive", "inactive"]
